tested on: Saccharomyces cerevisiae; test: protein stability index of tFT-peptide fusion (C-terminal peptide) (PSI (0-1 scale)); higher = more stable (slower turnover); conditions: genetic background: das1 deletion; temperature: 30 C
property.label: protein stability index
The response must contain the number and no unit.

# get_value(readout='protein stability index', item= LPHFSHLHVHHD [YHR056W-A C-terminal 12 aa] )
0.729

# get_value(readout='protein stability index', item= IEERLVAIAEQD [SCL1 C-terminal 12 aa] )
0.709

# get_value(readout='protein stability index', item= EGDIEPLKRILK [UBP2 C-terminal 12 aa] )
0.706

# get_value(readout='protein stability index', item= KDEINYLNSKLK [SPA2 C-terminal 12 aa] )
0.692

# get_value(readout='protein stability index', item= QHLKTHKKHGDF [MSN4 C-terminal 12 aa] )
0.719

# get_value(readout='protein stability index', item= WKKDNKIQVVKN [GIM4 C-terminal 12 aa] )
0.725

# get_value(readout='protein stability index', item= TEDQFKENGVKK [ICL1 C-terminal 12 aa] )
0.703

# get_value(readout='protein stability index', item= SDEFVDASEYKD [UTP9 C-terminal 12 aa] )
0.7

# get_value(readout='protein stability index', item= PAAKKVVELTQN [LSC2 C-terminal 12 aa] )
0.685

# get_value(readout='protein stability index', item= EHYSDGDVCIII [DAL3 C-terminal 12 aa] )
0.68

# get_value(readout='protein stability index', item= SQRPAKGVPEGF [VPS72 C-terminal 12 aa] )
0.69

# get_value(readout='protein stability index', item= WTALVVNILGRF [CWH41 C-terminal 12 aa] )
0.634

# get_value(readout='protein stability index', item= QHDEKPFYKRMF [HXT8 C-terminal 12 aa] )
0.723

# get_value(readout='protein stability index', item= KFDEKTATLVDE [YDL144C C-terminal 12 aa] )
0.692

# get_value(readout='protein stability index', item= PTVTRKTPDYFL [PPH22 C-terminal 12 aa] )
0.696

# get_value(readout='protein stability index', item= GRPEQAPECKQS [NAP1 C-terminal 12 aa] )
0.688

# get_value(readout='protein stability index', item= TILFMLVLYTIV [YDL241W C-terminal 12 aa] )
0.222

# get_value(readout='protein stability index', item= SFDVLAKVPNAA [RPA190 C-terminal 12 aa] )
0.692

# get_value(readout='protein stability index', item= PHVKLFETTSGL [IRC5 C-terminal 12 aa] )
0.718

# get_value(readout='protein stability index', item= KVTFINIEINYR [YGR064W C-terminal 12 aa] )
0.57

# get_value(readout='protein stability index', item= YNLKNDILTNLE [SWI1 C-terminal 12 aa] )
0.73

# get_value(readout='protein stability index', item= RRHFSERRLENK [YPR074W-A C-terminal 12 aa] )
0.684

# get_value(readout='protein stability index', item= LYGQRFLATGFQ [AIM19 C-terminal 12 aa] )
0.714
